Measured target: T1, TCE-20 (anti-CD3 scFv S110A; anti-TROP2 wt)
T1 construct: scFv on the Fab heavy chain; also called TCE-20 (S110A)
Experiment notes: competition ELISA, TCE on captured CD3
Where no end group is shown, it is not given here.
Overview of recorded pIC50 for various binders
By convention, pIC50 is the negative base-10 log of a molar concentration.

Some entries whose results are on file:
Binder	pIC50
YLCGPDGDETLACY (cysteine pairing not given here; also: biotinylated, site not given here, mask peptide for the CD3 scFv) [Peptide-70]	6.43
QGCGTIADPEPHCW (cysteine pairing not given here; also: biotinylated, site not given here, mask peptide for the CD3 scFv) [Peptide-65]	5.18
GSACLGPEWEVCPY (cysteine pairing not given here; also: biotinylated, site not given here, mask peptide for the CD3 scFv) [Peptide-75]	3.92

Data request, read-out pIC50, for VYCGPEFDESVGCM (cysteine pairing not given here; also: biotinylated, site not given here, mask peptide for the CD3 scFv) [Peptide-67] 5.88
